TEST_NAME: Absorbance at 620 nm and pH of solutions over time after stirring (Experimental Example 2)
Assay type: physicochemical
ASSAY_CONTEXT: initial; mean±S.E., N=4
QUANTITY_NAME: absorbance at 620 nm
// no unit, no text: just the number

Input CCCCOc1cc(C(=O)NCCN(CC)CC)c2ccccc2n1 . Output absorbance at 620 nm: 0.000

Input CCCCNc1ccc(C(=O)OCCN(C)C)cc1 . Output absorbance at 620 nm: 0.000

Input CCCCN1CCCCC1C(=O)Nc1c(C)cccc1C (stereo not shown) . Output absorbance at 620 nm: 0.000

Input CCN(CC)CC(=O)Nc1c(C)cccc1C . Output absorbance at 620 nm: 0.006

----------
TEST_NAME: Absorbance at 620 nm and pH of solutions over time after stirring (Experimental Example 2)
Type: physicochemical
ASSAY_CONTEXT: 5 min later; average, N=4
Please provide measured pH for the entries that follow.
// no unit, no text: just the number

Input CCCCN1CCCCC1C(=O)Nc1c(C)cccc1C (stereo not shown) [bupivacaine] . Output pH: 7.20

Input CCCCOc1cc(C(=O)NCCN(CC)CC)c2ccccc2n1 [dibucaine] . Output pH: 6.85

Input CCN(CC)CC(=O)Nc1c(C)cccc1C [lidocaine] . Output pH: 7.09

Input CCCCNc1ccc(C(=O)OCCN(C)C)cc1 [tetracaine] . Output pH: 7.12

----------
TEST_NAME: Absorbance at 620 nm and pH of solutions over time after stirring (Experimental Example 2)
Assay type: physicochemical
ASSAY_CONTEXT: 48 hr later; mean±S.E., N=4
QUANTITY_NAME: absorbance at 620 nm
// no unit, no text: just the number

Input CCCCN1CCCCC1C(=O)Nc1c(C)cccc1C (stereo not shown) . Output absorbance at 620 nm: 0.247

Input CCN(CC)CC(=O)Nc1c(C)cccc1C . Output absorbance at 620 nm: 0.382

Input CCCCOc1cc(C(=O)NCCN(CC)CC)c2ccccc2n1 . Output absorbance at 620 nm: 1.385

Input CCCCNc1ccc(C(=O)OCCN(C)C)cc1 . Output absorbance at 620 nm: 0.386

----------
Please provide measured absorbance at 620 nm for the entries that follow.
TEST_NAME: Absorbance at 620 nm and pH of solutions over time after stirring (Experimental Example 2)
Type: physicochemical
ASSAY_CONTEXT: 24 hr later; mean±S.E., N=4

Input CCCCNc1ccc(C(=O)OCCN(C)C)cc1 . Output absorbance at 620 nm: 0.411±0.024

Input CCCCN1CCCCC1C(=O)Nc1c(C)cccc1C (stereo not shown) . Output absorbance at 620 nm: 0.659±0.084

Input CCCCOc1cc(C(=O)NCCN(CC)CC)c2ccccc2n1 . Output absorbance at 620 nm: 1.456±0.079

Input CCN(CC)CC(=O)Nc1c(C)cccc1C . Output absorbance at 620 nm: 0.717±0.152

----------
Please provide measured absorbance at 620 nm for the entries that follow.
TEST_NAME: Absorbance at 620 nm and pH of solutions over time after stirring (Experimental Example 2)
Format: physicochemical
ASSAY_CONTEXT: 5 min later; mean±S.E., N=4
// no unit, no text: just the number

Input CCCCOc1cc(C(=O)NCCN(CC)CC)c2ccccc2n1 [dibucaine] . Output absorbance at 620 nm: 1.528

Input CCN(CC)CC(=O)Nc1c(C)cccc1C [lidocaine] . Output absorbance at 620 nm: 1.045

Input CCCCN1CCCCC1C(=O)Nc1c(C)cccc1C (stereo not shown) [bupivacaine] . Output absorbance at 620 nm: 0.087

Input CCCCNc1ccc(C(=O)OCCN(C)C)cc1 [tetracaine] . Output absorbance at 620 nm: 0.517

----------
TEST_NAME: Absorbance at 620 nm and pH of solutions over time after stirring (Experimental Example 2)
Type: physicochemical
ASSAY_CONTEXT: 48 hr later; average, N=4
Please provide measured pH for the entries that follow.
// no unit, no text: just the number

Input CCCCNc1ccc(C(=O)OCCN(C)C)cc1 . Output pH: 7.05

Input CCN(CC)CC(=O)Nc1c(C)cccc1C . Output pH: 7.10

Input CCCCN1CCCCC1C(=O)Nc1c(C)cccc1C (stereo not shown) . Output pH: 6.77

Input CCCCOc1cc(C(=O)NCCN(CC)CC)c2ccccc2n1 . Output pH: 6.73

----------
TEST_NAME: Absorbance at 620 nm and pH of solutions over time after stirring (Experimental Example 2)
Format: physicochemical
ASSAY_CONTEXT: initial; average, N=4
QUANTITY_NAME: pH

Input CCCCOc1cc(C(=O)NCCN(CC)CC)c2ccccc2n1 [dibucaine] . Output pH: 6.19

Input CCCCN1CCCCC1C(=O)Nc1c(C)cccc1C (stereo not shown) [bupivacaine] . Output pH: 5.44

Input CCN(CC)CC(=O)Nc1c(C)cccc1C [lidocaine] . Output pH: 4.59

Input CCCCNc1ccc(C(=O)OCCN(C)C)cc1 [tetracaine] . Output pH: 5.49

----------
Please provide measured pH for the entries that follow.
TEST_NAME: Absorbance at 620 nm and pH of solutions over time after stirring (Experimental Example 2)
Format: physicochemical
ASSAY_CONTEXT: 24 hr later; average, N=4
// no unit, no text: just the number

Input CCCCOc1cc(C(=O)NCCN(CC)CC)c2ccccc2n1 . Output pH: 6.76

Input CCCCNc1ccc(C(=O)OCCN(C)C)cc1 . Output pH: 7.04

Input CCN(CC)CC(=O)Nc1c(C)cccc1C . Output pH: 7.05

Input CCCCN1CCCCC1C(=O)Nc1c(C)cccc1C (stereo not shown) . Output pH: 6.89
